Each item that follows carries a reported self-cleavage.
B1: LINE1-mini (parent)
chain: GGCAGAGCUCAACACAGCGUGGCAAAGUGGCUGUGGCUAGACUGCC

- Variants of: B1
- method-summary: self-cleavage, relative activity (ratio to wild type); higher = more cleavage; in vitro, sequencing; the parent is a self-cleaving ribozyme
// no unit string in output, number only

Challenge: Could you please provide reported self-cleavage for GGCAGAGCUCAACACAUCGUGGCAAAGUGGCUGUGCCUAGACUGCC [G17U G36C] ? Thanks!
Response given: 0.09

Challenge: Could you please provide reported self-cleavage for GGCAGAGCUCAACACAGCGUGGCAAAGUCGGUGUGGCUAGACUGCC [G29C C31G] ? Thanks!
Response given: 0.34

***
Challenge: Could you please provide reported self-cleavage for GGCAGAGCUCAACACAGCGUGGCAAAGUGACUGUGGGUAGACUGCC [G30A C37G] ? Thanks!
Response given: 0.06

Challenge: Could you please provide reported self-cleavage for GGCAGAGCUCAACACAGCUAGGCAAAGUGGCUGUGGCUAGACUGCC [G19U U20A] ? Thanks!
Response given: 0.86

Challenge: Could you please provide reported self-cleavage for GGCAGAGUUCAACACAGCGUGGCAAAGUGGCUGUGCCUAGACUGCC [C8U G36C] ? Thanks!
Response given: 0.27

Challenge: Could you please provide reported self-cleavage for GGCAGAGCUCAACACAGCGUGGCAAAGUGGCUAUGGCUAGCCUGCC [G33A A41C] ? Thanks!
Response given: 0.07

Challenge: Could you please provide reported self-cleavage for GGCAGAGCUCAACACAGCGUGGCAAAGUGGCGGGGGCUAGACUGCC [U32G U34G] ? Thanks!
Response given: 0.03

Challenge: Could you please provide reported self-cleavage for GGCAGAGCUCAACACAGCGUGGCAAAGUGGUUGUGGCUCGACUGCC [C31U A39C] ? Thanks!
Response given: 0.12

Challenge: Could you please provide reported self-cleavage for GGCAGAGCACAACACAGCGUGGGAAAGUGGCUGUGGCUAGACUGCC [U9A C23G] ? Thanks!
Response given: 0.16

Challenge: Could you please provide reported self-cleavage for GGCAGAGCUCAACACAGCGUGGCAAAGUGCCUCUGGCUAGACUGCC [G30C G33C] ? Thanks!
Response given: 0.03

Challenge: Could you please provide reported self-cleavage for GGCAGAUCUCAACACAGCGUGGCAAAGUGGCUGUGGCUCGACUGCC [G7U A39C] ? Thanks!
Response given: 0.19
